Origin of measurements: the supplement of paper PMC8967900

System: COG-LL-394h;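 also: ALL cell lines in 384-well plates, five doses spanning 10,000-fold, each plate scaled between vehicle and 100 µmol/L benzalkonium chloride controls, sDSS an adapted area-under-curve metric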
Experiment: selective drug sensitivity score (sDSS, relative to normal bone marrow) (sDSS (score)); higher = more potent and effective on the cell line relative to normal bone marrow cells
Conditions: 72 h
So basically, the class depends on measured selective drug sensitivity score, and the ranges are low end: < -0.7; middle: ≥ -0.7 and < 0.2; high end: ≥ 0.2

- compound: "CN[C@@H](C)C(=O)N[C@H](C(=O)N1CCC[C@H]1c1nc(C(=O)c2ccc(F)cc2)cs1)C1CCCCC1 [NVP-LCL161] (top concentration 25000 nM)"
  category_label: "high end"
- compound: "C[C@@H](Nc1cc(F)cc(F)c1)c1cc(C(=O)N(C)C)cc2c(=O)cc(N3CCOCC3)oc12 [AZD-8186] (top concentration 1000 nM)"
  category_label: "middle"
- compound: "COc1cc2c(Nc3ccc(Cl)c(Cl)c3F)ncnc2cc1OC[C@@H]1C[C@@H]2CN(C)C[C@@H]2C1 [Tesevatinib] (top concentration 1000 nM)"
  category_label: "middle"
- compound: "Nc1cc(C(F)(F)F)c(-c2cc(N3CCOCC3)nc(N3CCOCC3)n2)cn1 [Buparlisib] (top concentration 10000 nM)"
  category_label: "high end"
- compound: "CON(C)C(=O)N1N=C(c2cc(F)ccc2F)S[C@@]1(CCCN)c1ccccc1 [Filanesib] (top concentration 1000 nM)"
  category_label: "high end"
- compound: "CN1CCC(CNc2ccc3ncc(-c4cccc(OC(F)(F)F)c4)n3n2)CC1 [SGI-1776] (top concentration 10000 nM)"
  category_label: "high end"
- compound: "CC(C)Oc1ccc(-c2nn([C@@H](C)c3oc4ccc(F)cc4c(=O)c3-c3cccc(F)c3)c3ncnc(N)c23)cc1F [TGR-1202] (top concentration 2500 nM)"
  category_label: "low end"
- compound: "O=S(=O)(c1cccc2c(O)nccc12)N1CCCNCC1 [Hydroxyfasudil] (top concentration 19000 nM)"
  category_label: "low end"
- compound: "O=C(O)CC1CC(c2ccccc2)=NO1 (stereo unspecified) [VGX-1027] (top concentration 10000 nM)"
  category_label: "middle"
- compound: "Nc1cccc2c1C(=O)N(C1CCC(=O)NC1=O)C2=O (stereo unspecified) [Pomalidomide] (top concentration 10000 nM)"
  category_label: "middle"
- compound: "CC[C@H](CC#N)OC(=O)N[C@@H](C)c1cccc(NC(=O)Nc2ccc(-c3cnco3)c(OC)c2)c1 [AVN944] (top concentration 10000 nM)"
  category_label: "low end"
- compound: "O=C(O)c1ccc2c(c1)nc(Nc1cccc(Cl)c1)c1ccncc12 [Silmitasertib] (top concentration 10000 nM)"
  category_label: "high end"
- compound: "C[C@H](Nc1ncnc2nc[nH]c12)c1cc2cccc(Cl)c2c(=O)n1-c1ccccc1 [Duvelisib] (top concentration 500 nM)"
  category_label: "low end"
- compound: "C[C@@H]1CCN(C(=O)CC#N)C[C@@H]1N(C)c1ncnc2[nH]ccc12 [Tofacitinib] (top concentration 5000 nM)"
  category_label: "low end"
- compound: "O=C(Nc1cc(Cl)cc2c1[nH]c1cnccc12)c1cccnc1 [PS-1145] (top concentration 25000 nM)"
  category_label: "middle"
- compound: "O=C(Nc1cnn2ccc(N3CCC[C@@H]3c3cc(F)ccc3F)nc12)N1CC[C@H](O)C1 [Larotrectinib] (top concentration 1000 nM)"
  category_label: "middle"
- compound: "O=C(O)CCCCC(CCSCc1ccccc1)SCc1ccccc1 (stereo unspecified) [Devimistat (CPI-613)] (top concentration 10000 nM)"
  category_label: "middle"
- compound: "CCN(CCO)CCCOc1ccc2c(Nc3cc(CC(=O)Nc4cccc(F)c4)[nH]n3)ncnc2c1 [AZD1152-HQPA] (top concentration 1000 nM)"
  category_label: "high end"
- compound: "CCS(=O)(=O)Nc1ccc(Oc2ccc(F)cc2F)c(-c2cn(C)c(=O)c3[nH]ccc23)c1 [Mivebresib] (top concentration 10000 nM)"
  category_label: "high end"
- compound: "COc1cc(Nc2ncc(F)c(Nc3ccc4c(n3)NC(=O)C(C)(C)O4)n2)cc(OC)c1OC [Tamatinib] (top concentration 10000 nM)"
  category_label: "low end"
- compound: "CC(O)c1cc(C(=O)N[C@@H](C)Cn2ccc(-c3ccc(C#N)c(Cl)c3)n2)n[nH]1 (stereo partly specified) [ODM-201] (top concentration 2500 nM)"
  category_label: "middle"
- compound: "COc1ccc(-c2ccc3c(N4CCOC[C@@H]4C)nc(N4CCOC[C@@H]4C)nc3n2)cc1CO [AZD8055] (top concentration 10000 nM)"
  category_label: "low end"
- compound: "O=c1ncn2nc(Sc3ccc(F)cc3F)ccc2c1-c1c(Cl)cccc1Cl [Neflamapimod] (top concentration 10000 nM)"
  category_label: "high end"
- compound: "COCC[n+]1c2c(n(Cc3cnccn3)c1C)C(=O)c1ccccc1C2=O [Sepantronium_bromide] (top concentration 10000 nM)"
  category_label: "low end"
